Entries and their DR/DR AA values follow.
test: Probe fluorescence ratio response to arachidonic acid relative to ADIFAB2; assay type: binding; settings: arachidonic acid; response relative to ADIFAB2
measurement-kind: DR/DR AA

1. 72A 73W 74V (protein, listed as Rattus norvegicus, PEPTIDE (1)...(131) wild-type rat intestinal fatty acid binding protein) AFDGTWKVDRNENYEKFMEKMGINVVKRKLGAHDNLKLTITQEGNKFTVKESSNFRNIDVVFELGVDFAYSAWVGTELTGTWTMEGNKLVGKFKRVDNGKELIAVREISGNELIQTYTYEGVEAKRIFKKE ... 1.768
2. 106F1, 72A (protein, listed as Rattus norvegicus, PEPTIDE (1)...(131) wild-type rat intestinal fatty acid binding protein) AFDGTWKVDRNENYEKFMEKMGINVVKRKLGAHDNLKLTITQEGNKFTVKESSNFRNIDVVFELGVDFAYSAADGTELTGTWTMEGNKLVGKFKRVDNGKELIAVFEISGNELIQTYTYEGVEAKRIFKKE ... 0.75
3. 18I 31I 55M 73V 72A (protein, listed as Rattus norvegicus, PEPTIDE (1)...(131) wild-type rat intestinal fatty acid binding protein) AFDGTWKVDRNENYEKFIEKMGINVVKRKLIAHDNLKLTITQEGNKFTVKESSNMRNIDVVFELGVDFAYSAVDGTELTGTWTMEGNKLVGKFKRVDNGKELIAVREISGNELIQTYTYEGVEAKRIFKKE ... 1.710
